Listed here: items and their measured TGI.
# System: NCI-H226 lung
# Assay summary: NCI tumour cell line growth inhibition, 48 h

{"Compound": "COc1ccc2c(CC(=O)O)cc(=O)oc2c1", "Result": "> 100 µM"}

Request: Please look up its TGI: C=C[C@@]1(C)CC2CC[C@]3(C)C(C)=CC(=O)CC3[C@]2(C)CC1O (some centres undefined)
Response: > 100 µM

Request: Please look up its TGI: CCOC(=O)C1=C(N)Oc2c(sc3c(C)cccc23)C1c1ccc(Cl)cc1 (centres undefined)
Response: 19.8 µM

Request: Please look up its TGI: `Cc1c2ccccc2c(CO)c2cc(F)c3ccccc3c12`
Response: > 100 µM

Request: Please look up its TGI: `COc1ccc(-c2cc(-c3ccc(O)cc3)nc3nc(=S)[nH]c(N)c23)cc1`
Response: 36.9 µM

Request: Please look up its TGI: `O=C1Nc2ccccc2C1(c1ccc(O)c(F)c1)c1ccc(O)c(F)c1`
Response: 39.7 µM

Request: Please look up its TGI: `CCc1ccc(CCC(=O)O)nc1`
Response: > 100 µM

Request: Please look up its TGI: `CC(=O)O[C@H]1C(=O)[C@@]2(C)[C@H]([C@H](OC(=O)c3ccccc3)[C@]3(O)C[C@H](OC(=O)[C@H](O)[C@@H](NC(=O)c4ccccc4)C4CCCCC4)C(C)=C1C3(C)C)[C@]1(OC(C)=O)CO[C@@H]1C[C@@H]2O`
Response: > 100 µM

Request: Please look up its TGI: O=c1cc2n(c(=O)[nH]1)C1OC(C(O)C1O)[C@H]2CCO (some centres undefined)
Response: > 100 µM

* * *

# System: PC-3 prostate
# Assay summary: NCI tumour cell line growth inhibition, 48 h
Listed here: items and their measured TGI.

For orientation, consider the following solved cases.
{"Compound": "CCOC(=O)N1CC2(C(=O)OC)C=CC1C(C(=O)OC)C2 (stereo not drawn)", "TGI": "> 100 µM"}
{"Compound": "CCOCCc1c(O)nc(SC)[nH]c1=O", "TGI": "> 100 µM"}
{"Compound": "COc1ccc(OC)c(C2CCCc3c2cnc2nc(N)nc(N)c32)c1 (stereo not drawn)", "TGI": "> 100 µM"}
{"Compound": "C=CCCC(O)c1ccc(C(O)CCCCCCCCCCCC)o1 (stereo not drawn)", "TGI": "47.8 µM"}
{"Compound": "C[As](C)Sc1ccnc(S[As](C)C)n1", "TGI": "30.8 µM"}

Request: Please look up its TGI: NC(=O)NC(CC(=O)O)C(=O)O (stereo not drawn)
Response: > 100 µM

Request: Please look up its TGI: C[C@H](CCC(=O)O[C@@H]1CC[C@@]2(C)C(CC[C@H]3[C@@H]4CC[C@H]([C@H](C)CCc5nc6ccccc6[nH]5)[C@@]4(C)CC[C@@H]32)C1)[C@H]1CC[C@H]2[C@@H]3CCC4C[C@H](O)CC[C@]4(C)[C@H]3CC[C@]12C (stereo partly drawn)
Response: > 100 µM

Request: Please look up its TGI: `COC(=O)NNc1c([N+](=O)[O-])cnn(-c2ccccc2)c1=O`
Response: 3.21 µM

Request: Please look up its TGI: `COC(=O)c1ccccc1/C=C1\Cc2cc3c(cc2C1=O)CCC3`
Response: > 100 µM

Request: Please look up its TGI: `O=C(CSc1nc2ccc([N+](=O)[O-])cc2[nH]1)Nc1cccc(Cl)c1`
Response: 16.1 µM

Request: Please look up its TGI: `COCC[N+](CCNC(=O)c1cccc2c(N)c3cccc(C)c3nc12)(CCOC)Cc1ccc([N+](=O)[O-])cc1`
Response: > 100 µM

* * *

# Test system: HS 578T breast
# Assay summary: NCI tumour cell line growth inhibition, 48 h
Parameter: TGI (µM)
State the answer as a number, implicitly in µM.

For orientation, consider the following solved cases.
{"Smiles input": "CCCCCCCCCCCC1=NC(C)(C)CN1CCO", "TGI / µM": 25.6}
{"Smiles input": "C[As](C)Sc1ccnc(S[As](C)C)n1", "TGI / µM": 17.7}
{"Smiles input": "Cc1cc(Cl)ccc1NC(=O)/C(Cl)=C(/Cl)C(=O)O", "TGI / µM": 61.6}

Request: Please look up its TGI: `O=C(c1ccccc1)c1ccc(Cl)c([N+](=O)[O-])c1`
Response: 95.3

Request: Please look up its TGI: `C#CC[C@@H]1C[C@]2(C)[C@H]3CC[C@@H]4[C@H]5[C@H](C(=C)C)CC[C@]5(C(=O)O)CC[C@@]4(C)[C@]3(C)CC[C@H]2C(C)(C)[C@H]1O`
Response: 7.01

Request: Please look up its TGI: `CCOC(=O)c1c[nH]c2c(OCc3ccccc3)c3ccccc3c(O)c2c1=O`
Response: 48

Request: Please look up its TGI: `OCCOCCN1CCN(c2nc(N3CCCC3)c3nc(Cl)c(NCc4ccccc4)nc3n2)CC1`
Response: 43.5

Request: Please look up its TGI: `O=C(/C=C/c1ccccn1)c1ccccc1O`
Response: 7.27

Request: Please look up its TGI: `COC(=O)NNc1c([N+](=O)[O-])cnn(-c2ccccc2)c1=O`
Response: 6.98

* * *

# System: SW-620 colon
# Assay summary: NCI tumour cell line growth inhibition, 48 h
Listed here: items and their measured TGI.

{"Compound": "CC1C(=O)C(C)C(c2cccs2)N(N=O)C1c1cccs1 (configuration not stated)", "TGI": "> 100 µM"}
{"Compound": "COc1ccc(C(=O)C(c2ccc(OC)cc2)C2C(=O)Oc3ccccc32)cc1 (configuration not stated)", "TGI": "> 100 µM"}
{"Compound": "C=C1C(=O)O[C@H]2[C@H]1CC/C(COC(=O)/C=C\\C(=O)NCc1ccc(Cn3c(=O)sn(-c4ccc(OC)cc4)c3=O)cc1)=C\\CC[C@@]1(C)O[C@@H]21", "TGI": "1 µM"}
{"Compound": "Cc1ccc(S(=O)(=O)c2c(N)c3nccn3c3nc4ccccc4nc23)cc1", "TGI": "> 100 µM"}
{"Compound": "O=C(CSc1nc2ccc([N+](=O)[O-])cc2[nH]1)Nc1cccc(Cl)c1", "TGI": "19.8 µM"}
{"Compound": "OC(c1ccsc1)c1cc2ccccc2s1 (configuration not stated)", "TGI": "> 10 µM"}
{"Compound": "O=c1c2cc(Br)ccc2[nH]c(=S)n1-c1ccc(Br)cc1", "TGI": "> 100 µM"}
{"Compound": "CCCn1cc(C2=C(c3cn(C)c4ccccc34)C(=O)NC2=O)c2ccccc21", "TGI": "> 25 µM"}
{"Compound": "O=C1CSC(=S)N1c1ccc(F)cc1F", "TGI": "> 100 µM"}
{"Compound": "CC(=O)c1c2c(cc3c1CC1(Cc4cc5c(cc4C1=O)CCC5)C3)CCC2 (configuration not stated)", "TGI": "> 100 µM"}

Request: Please look up its TGI: `COc1ccc(C(=O)/C=C2\c3ccccc3C(=O)N2C)cc1`
Response: > 100 µM

Request: Please look up its TGI: `COC(=O)NNc1c([N+](=O)[O-])cnn(-c2ccccc2)c1=O`
Response: 2.24 µM

Request: Please look up its TGI: `O=C1C=C(c2c(-c3ccccc3)[nH]c3ccccc23)C(=O)N1c1ccccc1`
Response: 18.4 µM

Request: Please look up its TGI: `CN(C)c1ccc(/C=C(\C#N)c2cc3ccccc3n2C)cc1`
Response: > 100 µM

Request: Please look up its TGI: `CCOC(=O)c1ccc2c(c1)[n+](=O)c(C(=O)c1ccc3ccccc3c1)c(C(F)(F)F)n2[O-]`
Response: 2.92 µM

Request: Please look up its TGI: `O=C(CCc1nnc(-c2c(Cl)cccc2Cl)o1)c1nc2ccccc2[nH]1`
Response: 16.3 µM

Request: Please look up its TGI: `Cc1cccc2nc3n(c12)C(=O)c1ccccc1-3`
Response: > 100 µM

Request: Please look up its TGI: `Cc1ccc(-c2c(C#N)c(-c3ccc([N+](=O)[O-])cc3)c(C#N)c(=O)n2NS(=O)(=O)c2ccc(C)cc2)cc1`
Response: > 100 µM

Request: Please look up its TGI: `COC(=O)CSc1ccccc1`
Response: > 100 µM

Request: Please look up its TGI: `Nc1ccccc1/C=N\Nc1ccccc1`
Response: > 100 µM

Request: Please look up its TGI: `COc1ccc(-c2cc(-c3ccc(O)cc3)nc3nc(=S)[nH]c(N)c23)cc1`
Response: 33.3 µM

Request: Please look up its TGI: `O/N=C(\C=N\O)c1ccc2c(c1)Sc1ccccc1O2`
Response: 78.7 µM

* * *

# Tested on: M14 melanoma
# Assay summary: NCI tumour cell line growth inhibition, 48 h
Parameter: TGI

Request: Please look up its TGI: `COc1c(C(=O)/C(=N/Nc2ccccc2)C(C)=O)c(O)c(OC)c2occc12`
Response: > 100 µM

Request: Please look up its TGI: `O=c1c2c(sc3ccccc13)NCN(CCc1ccccc1)C2`
Response: 84.4 µM

Request: Please look up its TGI: OC(c1ccsc1)c1cc2ccccc2s1 (stereo not drawn)
Response: > 10 µM

Request: Please look up its TGI: CC1=C2C(=O)C3[C@@H](CCC4=CC(=O)CC[C@@]43C)C2CC[C@]12O[C@@H]1C[C@H](C)CN[C@H]1[C@H]2C (stereo partly drawn)
Response: > 100 µM

Request: Please look up its TGI: `O=c1oc2c3ccc4ccccc4c3n(CCN3CCOCC3)c2c2ccccc12`
Response: > 100 µM
